- Experiment Notes: H9c2 cardiomyocyte survival under peroxide injury – uHTS, H9c2 cells, ATPLite luminescence, primary screen (AID 588492);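 further: 0% = DMSO wells with peroxide and 100% = DMSO wells without peroxide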
- Conditions: H9c2 cardiomyocytes, 2 h, at 20 µM, active compounds read high
Screen size: about 360,000 compounds; about 2,300 (0.64%) were called active. Only a selection was taken, and actives are over-represented in it overall.
Measured Metric: protection from H2O2 cell death (%)
One number for each entry, in %.

- Molecule: "Oc1ccccc1C=NC1CCCCC1N=Cc1ccccc1O (stereo not given)"
  Unit String: "%"
  protection from H2O2 cell death: 7.8

For each entry beneath this line, provide reported protection from H2O2 cell death.
1. CCOC(=O)c1nc(Nc2ccc(C(=O)OC)cc2)c2ccccc2n1
2. Cc1ccc(NS(=O)(=O)c2ccc3c(c2)NC(=O)CO3)cc1

1. 50.6
2. -11.5

For each entry beneath this line, provide reported protection from H2O2 cell death.
1. O=C1N[C@H](Cc2c[nH]c3ccccc23)COC(=O)[C@H](Cc2ccc(F)cc2)C/C=C\C[C@H]1CC(=O)N(CCO)Cc1ccccc1
2. COc1cc(NC(=O)COC(=O)c2ccc([N+](=O)[O-])s2)cc(OC)c1OC
3. CS(=O)(=O)N1CCc2nc(-c3ccccc3)sc2C1
4. O=C(Oc1cccc(N2C(=O)C3C4c5ccccc5C(c5ccccc54)C3C2=O)c1)c1ccco1 (stereo not given)
5. CC(C)c1cc(N=O)cc(C(C)C)c1O
6. O=C(CSc1cccc2cccnc12)N/N=C/c1cccnc1
7. CCO[C@H]1OC(C(=O)N2CCOCC2)=C[C@@H](c2ccc3c(c2)OCO3)[C@@H]1CCCO

[51.5, 41.6, -1.4, -6.6, -7, -2.6, 2.8]

For each entry beneath this line, provide reported protection from H2O2 cell death.
1. CC(C(=O)Nc1ccc(S(=O)(=O)N2CCCC2)cc1)N(C)Cc1ccc(F)cc1 (stereo not given)
2. O=C1NC[C@@H](c2ccccc2)OC(=O)[C@H](Cc2ccc(F)cc2)CC/C=C/C[C@H]1CC(=O)N(CCO)Cc1ccccc1
3. CC(C)(C)OC(=O)C[C@@H]1C/C=C\C[C@@H](CC(=O)N(CCO)Cc2ccccc2)C(=O)N[C@H](Cc2ccccc2)COC1=O
4. O=C(CCN1CCCCC1)Nc1ccc(F)c(F)c1
5. O=C(Cn1cnc2ccccc21)Nc1ccccc1-c1ccccc1
6. O=C(N/N=C/c1ccccc1O)/C(=C/c1ccccc1)CCO

[0.3, 61.8, 14.2, 0.6, -5.3, 35.8]

For each entry beneath this line, provide reported protection from H2O2 cell death.
1. COc1ccccc1N(C)S(=O)(=O)c1ccc(Cl)c(C(=O)Nc2ccncc2)c1
2. COc1ccc(CCNC(=O)CCn2c(=O)c3ccccc3n(CC(=O)NCC3CCCO3)c2=O)cc1OC (stereo not given)
3. CCc1ccc(/C=N/NC(=O)c2nnn(-c3nonc3N)c2CN2CCc3ccccc32)cc1
4. COc1ccccc1NS(=O)(=O)c1ccc(C)c(C(=O)NNC(=O)c2csc(N3CCOCC3)n2)c1
5. CCC(C)(C)NC(=O)C(c1ccccn1)N(C(=O)c1csnn1)c1ccccc1 (stereo not given)
6. CCOC(=O)c1ccc(N/C(=N/S(=O)(=O)c2ccccc2)c2ccccc2)cc1

1. -8.6
2. 7.8
3. -2.2
4. 8.3
5. 1.1
6. 1.3

For each entry beneath this line, provide reported protection from H2O2 cell death.
1. CCOn1c(=O)c(=O)n(O)c2ccccc21
2. O=C1N[C@@H](c2ccccc2)COC(=O)[C@H](Cc2ccc(F)cc2)C/C=C\C[C@@H]1CC(=O)N(CCO)Cc1ccccc1
3. COc1ccc(CCn2c(=N)c(C(=O)NCC3CCCO3)cc3c(=O)n4cccc(C)c4nc32)cc1OC (stereo not given)

[3.3, 8.2, 59.6]

* * *

- Experiment Notes: H9c2 cardiomyocyte survival under peroxide injury – uHTS, H9c2 cells, ATPLite luminescence, primary screen (AID 588492);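 further: 0% = DMSO wells with peroxide and 100% = DMSO wells without peroxide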
- Conditions: H9c2 cardiomyocytes, 2 h, at 20 µM, active compounds read high
In all, about 360,000 compounds went through this assay and about 2,300 (0.64%) were called active. Many of the other results were omitted from the sample, so actives are more common in it than they were.
Please note: Satisfied applies when protection from H2O2 cell death is 10% or greater, and Not satisfied applies otherwise.

- Compound: "Cc1cc(C)n(C(=O)c2ccc(C)c(S(=O)(=O)N3CCOCC3)c2)n1"
  Discrete Label: "Satisfied"
- Compound: "O=C(O)Cn1c(Cc2ccccc2)nc2ccccc21"
  Discrete Label: "Satisfied"
- Compound: "CC1CCN(S(=O)(=O)c2nnc(NC(=O)COc3ccccc3F)s2)CC1"
  Discrete Label: "Not satisfied"
- Compound: "CCOC(=O)N1CCN(C(=O)CN(C2CCCCC2)S(C)(=O)=O)CC1"
  Discrete Label: "Not satisfied"
- Compound: "O=C(CSc1c2c(nc3ccc(Cl)cc13)CCCC2)NCc1ccco1"
  Discrete Label: "Not satisfied"

Hi team, for CCc1cc(=O)oc2cc(OCC(=O)N3CCCc4ccccc43)ccc12 , is the recorded protection from H2O2 cell death at or above 10%?
Satisfied

* * *

- Experiment Notes: H9c2 cardiomyocyte survival under peroxide injury – uHTS, H9c2 cells, ATPLite luminescence, primary screen (AID 588492);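 further: 0% = DMSO wells with peroxide and 100% = DMSO wells without peroxide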
- Conditions: H9c2 cardiomyocytes, 2 h, at 20 µM, active compounds read high
The campaign covered roughly 360,000 compounds. About 2,300 (0.64%) were called active. The full list was thinned out, with actives kept by preference.
Measured Metric: protection from H2O2 cell death (%)
Give bare numbers, in %.

- Molecule: "COc1ccc(/C=C2/S/C(=N/N=C3\\CC4CCC3(C)C4(C)C)NC2=O)cc1 (centres undefined)"
  Endpoint Value: -7.9
- Molecule: "CCOc1ccc(OCC)c(NC(=O)CSc2nnc(Cn3cnc4ccccc43)n2C)c1"
  Endpoint Value: -3.2
- Molecule: "Cc1ccc(S(=O)(=O)/N=C2\\C=C(NS(=O)(=O)c3ccc(C)cc3)C(=O)c3ccccc32)cc1"
  Endpoint Value: -17.9
- Molecule: "CC1(C)Cc2c(C#N)c(SCc3nc4ccccc4[nH]3)nc(N3CCOCC3)c2CO1"
  Endpoint Value: 50.1
- Molecule: "O=c1[nH]cnc2c1c(-c1ccccc1)cn2-c1ccc(F)cc1"
  Endpoint Value: -5.8
- Molecule: "O=C(NCCN1C(=O)S/C(=C\\c2cccnc2)C1=O)c1ccc(S(=O)(=O)N2CCCC2)cc1"
  Endpoint Value: 0.9

For each entry beneath this line, provide reported protection from H2O2 cell death.
1. COC(=O)CN(c1cccc(C(C)=O)c1)S(C)(=O)=O
2. CCc1ccc(OCC(=O)NCC(c2ccc(Cl)cc2)N2CCCCC2)cc1 (centres undefined)

1: -1; 2: 2.7

For each entry beneath this line, provide reported protection from H2O2 cell death.
1. C=CCn1c(Cn2nnc3ccccc32)nnc1SCC(=O)N/N=C/c1cc(Br)cc(OC)c1O
2. COc1ccc(N2C(=O)CNC2=S)cc1

1. 9.5
2. 5.9

For each entry beneath this line, provide reported protection from H2O2 cell death.
1. Oc1c(Cl)cc(Cl)cc1/C=N/c1ncn[nH]1
2. Cc1ccc(O)c(/C=N/NC(=O)COc2ccc3c(C)cc(=O)oc3c2)c1
3. COc1ccc(S(=O)(=O)N2CCCCCC2)cc1NC(=O)Cc1ccc(OC)c(OC)c1
4. CCOC12CC(C)(C)CC(C)(CC3=C1C(=O)CC(C)(C)C3)C2 (centres undefined)
5. CSc1nc(-c2ccccc2)nc(C(Cl)Cl)n1
6. COC(=O)C1=C(C)NC(=O)/C1=C/c1ccc(CNS(=O)(=O)c2ccc(C)cc2)o1

1. 26.3
2. 38.5
3. 4
4. -0.9
5. -2.9
6. 2.9

For each entry beneath this line, provide reported protection from H2O2 cell death.
1. Cc1ccc2c(CSc3nncs3)cc(=O)oc2c1
2. CCOC(=O)Cn1c(O)c(N=NC(=O)CNC(=O)Cc2ccccc2)c2ccccc21
3. CN1CCN(c2ccc(CNS(=O)(=O)c3cccc(F)c3)cc2)CC1

1: -3.2; 2: 6.8; 3: 7.1

* * *

- Experiment Notes: H9c2 cardiomyocyte survival under peroxide injury – uHTS, H9c2 cells, ATPLite luminescence, primary screen (AID 588492);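 further: 0% = DMSO wells with peroxide and 100% = DMSO wells without peroxide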
- Conditions: H9c2 cardiomyocytes, 2 h, at 20 µM
Among all 360,000 compounds or so, about 2,300 (0.64%) were called active.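 Rule for the calls: active = compounds giving at least 50% protection of heart cells from peroxide-induced death in the single-dose screen, raw or plate-pattern-corrected value; inactive = the rest.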 This is one part of a sample in which actives are shown more often than they occur.
A correct response names exactly one class from label 1 = active, label 0 = inactive

- Compound: "CCc1nc2ccc(C(=O)NCCNC(C)=O)cn2c1N(CC)Cc1cccc(Br)c1"
  Discrete Label: "label 0"

GET /call?item= Cc1nc(N2CCN(c3ccccn3)CC2)c2c(C)c(C(=O)Nc3ccc(F)cc3)sc2n1 returns the recorded outcome of this test.
label 1

GET /call?item= O=c1[nH]nc(Cc2ccccn2)c2ccccc12 returns the recorded outcome of this test.
label 1

GET /call?item= Cc1cc(-n2nc(C)cc2C)n2ncc(-c3ccccc3)c2n1 returns the recorded outcome of this test.
label 0

GET /call?item= O=C(COc1ccccc1F)Nc1nc(-c2ccccn2)cs1 returns the recorded outcome of this test.
label 1

GET /call?item= COc1ccc(C(=O)NNC(=O)c2cc(C)[nH]n2)cc1 returns the recorded outcome of this test.
label 0
